For each record, write down the corresponding phosphorylation enrichment.
- System Name: Fyn (UniProt P06241)
- Sequence (P06241 whole entry, looked up): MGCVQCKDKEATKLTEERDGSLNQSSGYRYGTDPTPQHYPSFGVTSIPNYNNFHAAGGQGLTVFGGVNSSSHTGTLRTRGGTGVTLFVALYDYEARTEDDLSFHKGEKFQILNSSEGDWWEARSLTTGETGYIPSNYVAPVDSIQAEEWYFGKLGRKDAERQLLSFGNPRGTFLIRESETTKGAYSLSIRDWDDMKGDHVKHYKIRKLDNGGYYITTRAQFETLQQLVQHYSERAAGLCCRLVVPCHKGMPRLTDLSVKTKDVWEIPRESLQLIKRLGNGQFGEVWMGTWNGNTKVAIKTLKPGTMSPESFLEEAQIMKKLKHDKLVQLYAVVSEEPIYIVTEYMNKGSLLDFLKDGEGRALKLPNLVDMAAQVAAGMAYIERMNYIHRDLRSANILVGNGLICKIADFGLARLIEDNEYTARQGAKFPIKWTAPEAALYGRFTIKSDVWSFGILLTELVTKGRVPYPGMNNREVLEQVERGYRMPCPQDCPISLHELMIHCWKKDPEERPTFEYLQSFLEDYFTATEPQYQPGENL
- Assay Text: phosphorylation enrichment, bacterial display (enrichment ratio); higher = better substrate or ligand; peptides without Tyr show the background;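 further: 11-residue human phosphosite peptides and single-mutation variants displayed on the E. coli surface, counted by deep sequencing, each peptide's frequency after selection divided by its frequency in the unselected input library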;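 further: frequency after pTyr selection over input frequency; kinase dosed for 20-30% of maximal phosphorylation in three min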

Q: # phosphorylation enrichment lookup, item LRFKQYLRNPP [SHC1_Y315]
A: 0.551

Q: Which measured phosphorylation enrichment value corresponds to NFADPYRQLPF [CTNND2_Y503_Q507P_YF] ?
A: 0.587

Q: I have this sequence here, DQLVKHGVNPG [TMPO_Y127_Y127H] , and I need its recorded phosphorylation enrichment.
A: 0.308

Q: For LVTCSYLLGNS [LMNA_Y646_R644C] , what is its reported phosphorylation enrichment?
A: 0.756

Q: # query: phosphorylation enrichment of entry REVPVYTDSEP [FAM120B_Y368]
A: 0.753

* * *

- Tested on: Fer (mouse)
- Assay Text: phosphorylation enrichment, bacterial display (enrichment ratio); higher = better substrate or ligand; peptides without Tyr show the background
Task for the reader: assign each of the following sequences its reported phosphorylation enrichment.
Give the figure by itself; no unit, no explanation.

Q: Give Fer (mouse) phosphorylation enrichment for PEVRRCVLPLN [RPE65_Y368_Y368C]
A: 0.644

Q: Query the reported phosphorylation enrichment for Fer (mouse); item: RFFTTYDTNGR [CLCA1_Y665_YF]
A: 0.688

Q: Could you share what phosphorylation enrichment was measured for EPSVPYRGTVF [GLI3_Y104] , tested on Fer (mouse)?
A: 0.424

Q: Checklist item: phosphorylation enrichment tested on Fer (mouse), entry ATDLAYYLVRK [ASL_Y375] , value?
A: 0.786

Q: Form field: phosphorylation enrichment recorded for AIIGIYILRDD [CDH23_Y2949] with Fer (mouse) (enter value)
A: 0.676

Q: Record lookup: for Fer (mouse), what phosphorylation enrichment belongs to IIGNGYYFHVF [MYBPC3_Y1135_R1138H] ?
A: 0.491

Q: Lab note: need phosphorylation enrichment for HHFAAYFQQGD [GPI_Y351_R347H] on Fer (mouse), anyone have it?
A: 0.435

Q: Quick check: phosphorylation enrichment on Fer (mouse), item EVTQDYGLDPK [FH_Y110_N107T] ?
A: 0.625

Q: Query the reported phosphorylation enrichment for Fer (mouse); item: PTTKTYFLHFD [HBA1_Y43_P45L]
A: 0.532

Q: Lookup: phosphorylation enrichment / Fer (mouse) / PHMQTYEVDLN [SDHB_Y61]
A: 1.02

Q: Recorded phosphorylation enrichment for GCCSWYRGWAP [TIMP3_Y195_Y191C] with Fer (mouse), please?
A: 3.84

Q: Kindly state the measured phosphorylation enrichment obtained for YQLPYYNTVPS [BMPR1A_Y458_M460T] with Fer (mouse).
A: 2.1

Q: Lab note: need phosphorylation enrichment with Fer (mouse) for entry PMFTKYGNSLL [RPGRIP1L_Y196] , please look it up.
A: 1.44

Q: I'm curious: which phosphorylation enrichment was measured for FPHVIYARLWR [SMAD4_Y95] tested on Fer (mouse)?
A: 0.539

Q: Recall the recorded phosphorylation enrichment for RELGEYPLAEY [ALDH1A3_Y492_A493P] with Fer (mouse) and state it.
A: 0.593

Q: Reported phosphorylation enrichment for Fer (mouse), given VYYDLYGGEKF [PTPN11_Y66_D61V] ?
A: 2.99

Q: Recall the recorded phosphorylation enrichment for KSEFAYEIFDK [MYOM2_Y1024_L1022F] with Fer (mouse) and state it.
A: 0.543

Q: Write down the reported phosphorylation enrichment of EGNERYEGYCV [GRIA3_Y451] , test system: Fer (mouse).
A: 0.579

Q: Return phosphorylation enrichment measured with Fer (mouse) given this sequence: FCRIMYDIFPF [INTS13_Y67_YF]
A: 1.18

Q: Kindly state the measured phosphorylation enrichment obtained for SDPIIYTLENV [ADGRE1_Y534_I539V] with Fer (mouse).
A: 5.1

Q: Param readout= phosphorylation enrichment; system= Fer (mouse); entry= IWGKKYPTCNS [PTPRZ1_Y53_N48I] ; returns value.
A: 0.518

Q: Query for Fer (mouse): what phosphorylation enrichment does the record show for VQSASYLNDCL [MCM3AP_Y864_A867D] ?
A: 0.487

Q: Any idea what phosphorylation enrichment came out for DTNIAYCLHPR [POMT1_Y581_W582C] on Fer (mouse)?
A: 0.505

Q: Field: phosphorylation enrichment (Fer (mouse)). Entry: ISSLRYELLEE [TRPC6_Y896]
A: 0.544

Q: Observed phosphorylation enrichment on Fer (mouse) for ISSLCYELLEE [TRPC6_Y896_R895C] , please.
A: 0.924

Q: Hello, I am looking for reported phosphorylation enrichment with Fer (mouse) for RHPLDYLRQFP [NARS2_Y138_E137D_YF] . Could you help?
A: 0.349

Q: Give recorded phosphorylation enrichment with Fer (mouse) for the following sequence: PSNTEYPGPHS [TP63_Y171_D170E]
A: 0.498

Q: Form field - read-out: phosphorylation enrichment; system: Fer (mouse); submitted item: VSKGGYFSVNL [C3orf33_Y164]
A: 0.423

Q: Record lookup: for Fer (mouse), what phosphorylation enrichment belongs to IRKKFYRAILE [CHD7_Y1218_Q1214R_YF] ?
A: 0.42

Q: Test system Fer (mouse); read-out phosphorylation enrichment; what value for DRKRQYELLKL [KIF4B_Y684] ?
A: 0.421

Q: Recorded phosphorylation enrichment for WAMLAYNRSKL [WWOX_Y293] with Fer (mouse), please?
A: 0.525

Q: GET /values?readout=phosphorylation enrichment&system=Fer (mouse)&item= MTFVFYRENLR [NLRP14_Y443_YF]
A: 0.576

Q: Recall the recorded phosphorylation enrichment for SGGMDYGMVGG [TNRC6B_Y1382] with Fer (mouse) and state it.
A: 0.389

Q: Find phosphorylation enrichment (Fer (mouse)) for the entry VKANTYEKYWP [GATM_Y100]
A: 0.506

Q: Form field: phosphorylation enrichment recorded for PQGVSYIYTID [DCX_Y103_R102S] with Fer (mouse) (enter value)
A: 0.728

Q: Lookup: phosphorylation enrichment / Fer (mouse) / SVVVPYERPEV [TP53_Y220_P222R]
A: 0.51

Q: Please provide the recorded phosphorylation enrichment for TLRETYGEMAD [ALB_Y108] , tested on Fer (mouse).
A: 0.446

Q: Find phosphorylation enrichment (Fer (mouse)) for the entry RRAVKYLQMVG [AVPR2_Y117_C112R]
A: 0.431

Q: Record lookup: for Fer (mouse), what phosphorylation enrichment belongs to IVAREYYSKAD [CAMK2B_Y107_E110K] ?
A: 0.405

Q: Lab note: need phosphorylation enrichment with Fer (mouse) for entry SIVEDYRPPFY [ACVRL1_Y421_G416S] , please look it up.
A: 0.804

Q: Hi! What's the reported phosphorylation enrichment for RNGNRYFKGIV [DCX_Y64_D62N] on Fer (mouse)?
A: 0.6

Q: Query the reported phosphorylation enrichment for Fer (mouse); item: DEFLEHRRIVG [FAM221A_Y20_Y20H_YF]
A: 0.387

Q: Report phosphorylation enrichment for QMRLRYLAAEE [CEP120_Y884] tested on Fer (mouse).
A: 0.563

Q: State its phosphorylation enrichment on Fer (mouse): AALVQYYMEHH [PTPN11_Y80_E76A]
A: 0.415

Reference source for all entries: the supplement of paper PMC10065799
